Target: T1, Gal80 (UniProt P04387 1-435, limits assumed)
T1 construct: Cy3/Cy5 or otherwise fluorescently labelled on arrays; immobilised in SPR and ELISA
T1 sequence (looked up): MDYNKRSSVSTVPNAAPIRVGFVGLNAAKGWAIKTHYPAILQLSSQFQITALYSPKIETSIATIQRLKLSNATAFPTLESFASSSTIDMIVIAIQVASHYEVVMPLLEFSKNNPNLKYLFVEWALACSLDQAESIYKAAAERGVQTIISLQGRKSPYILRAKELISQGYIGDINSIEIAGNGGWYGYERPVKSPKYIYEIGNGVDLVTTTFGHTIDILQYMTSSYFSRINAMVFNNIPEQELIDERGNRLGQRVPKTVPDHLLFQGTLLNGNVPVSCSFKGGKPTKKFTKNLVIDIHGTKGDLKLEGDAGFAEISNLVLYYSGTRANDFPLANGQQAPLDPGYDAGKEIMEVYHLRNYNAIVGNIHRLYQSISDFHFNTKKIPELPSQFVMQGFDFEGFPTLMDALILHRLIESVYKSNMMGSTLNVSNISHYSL
Assay: light-directed peptide array, 25 pM labelled GAL80 with 1 mg/mL E. coli lysate; against template BP2
endpoint: Fold Enhancement (fold)
State the answer as a number, implicitly in fold.

Consider the reported Fold Enhancement for these binders:
| binder | unit_string | reported |
| --- | --- | --- |
| EGEDTEGKKSKIGSC [BP2 variant EGEDTEGKKSKIGSC] | fold | 10.4 |
| EGEKTEGKKSKLGSC [BP2 variant EGEKTEGKKSKLGSC] | fold | 9.81 |
| EGEITEGKKSKIGSC (Made in place on a glass slide by light-directed synthesis) [BP2 variant EGEITEGKKSKIGSC] | fold | 11.3 |

Now, please, on to the next binder.
Challenge: Fill in Fold Enhancement for record EGEDTEGKKSKLGSC [BP2 variant EGEDTEGKKSKLGSC]
Response given: 10.4

# credit: patent US20120065123A1
